Assay: molar heat capacity at constant pressure
Conditions: 298.15 K; 101.33 kPa; Liquid; Small sample (50 mg) DSC
± gives the expanded uncertainty stated by the source.
value.kind: molar heat capacity at constant pressure

# count of solved cases: 4
CO; 80.81 ± 1.6 J/K/mol
CCCCCCC; 223.91 ± 4.5 J/K/mol
NCc1ccccc1; 206.74 ± 4.1 J/K/mol
CCCCCO; 206.67 ± 4.1 J/K/mol

// moving on: another record for molar heat capacity at constant pressure
Req: Query molar heat capacity at constant pressure for "CCCO"
Resp: 143.41 ± 2.9 J/K/mol
